Molecular target: epithelial sodium channel (ENaC) (Mus musculus, UniProt Q61180+Q9WU38+Q9WU39)
Construct: Mouse kidney M-1 cells were cultivated in DMEM containing 5% FCS and 5 μM dexamethasone; endogenous in cells
Sequence (Q61180 1-699): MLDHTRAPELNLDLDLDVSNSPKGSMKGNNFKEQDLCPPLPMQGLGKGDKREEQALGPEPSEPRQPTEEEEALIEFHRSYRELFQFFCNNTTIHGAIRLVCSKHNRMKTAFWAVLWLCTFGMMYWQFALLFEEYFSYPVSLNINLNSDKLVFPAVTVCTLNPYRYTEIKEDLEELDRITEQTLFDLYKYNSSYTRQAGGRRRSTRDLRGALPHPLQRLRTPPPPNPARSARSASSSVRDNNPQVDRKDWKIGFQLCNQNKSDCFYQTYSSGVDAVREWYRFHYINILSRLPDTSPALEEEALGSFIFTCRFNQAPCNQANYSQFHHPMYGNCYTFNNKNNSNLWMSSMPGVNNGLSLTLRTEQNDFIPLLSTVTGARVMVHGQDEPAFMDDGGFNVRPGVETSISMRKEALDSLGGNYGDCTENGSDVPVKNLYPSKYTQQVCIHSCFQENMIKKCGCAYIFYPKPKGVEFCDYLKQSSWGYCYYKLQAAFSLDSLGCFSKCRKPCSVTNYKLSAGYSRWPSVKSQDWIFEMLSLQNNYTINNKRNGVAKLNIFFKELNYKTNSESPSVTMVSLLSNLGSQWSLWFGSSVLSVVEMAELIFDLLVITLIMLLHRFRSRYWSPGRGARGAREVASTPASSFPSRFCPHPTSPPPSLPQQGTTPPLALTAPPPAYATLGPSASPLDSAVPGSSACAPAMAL
Sequence (Q9WU38 1-638): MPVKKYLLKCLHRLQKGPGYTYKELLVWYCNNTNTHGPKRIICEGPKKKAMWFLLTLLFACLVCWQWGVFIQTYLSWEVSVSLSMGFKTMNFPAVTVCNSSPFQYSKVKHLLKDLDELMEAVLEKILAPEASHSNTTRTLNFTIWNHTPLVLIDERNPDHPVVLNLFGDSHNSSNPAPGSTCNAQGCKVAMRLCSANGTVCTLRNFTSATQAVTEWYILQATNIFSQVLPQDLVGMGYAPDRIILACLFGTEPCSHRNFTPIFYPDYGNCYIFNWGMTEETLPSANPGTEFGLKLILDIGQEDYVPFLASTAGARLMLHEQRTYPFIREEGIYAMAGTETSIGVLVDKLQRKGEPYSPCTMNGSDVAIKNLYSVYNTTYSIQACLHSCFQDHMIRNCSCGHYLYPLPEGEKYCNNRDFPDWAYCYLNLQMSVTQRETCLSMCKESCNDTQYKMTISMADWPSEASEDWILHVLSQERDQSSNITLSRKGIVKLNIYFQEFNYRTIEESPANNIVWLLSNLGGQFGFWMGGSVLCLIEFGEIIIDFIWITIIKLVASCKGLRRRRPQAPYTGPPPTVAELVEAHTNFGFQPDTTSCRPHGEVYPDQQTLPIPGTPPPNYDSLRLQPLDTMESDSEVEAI
Sequence (Q9WU39 1-655): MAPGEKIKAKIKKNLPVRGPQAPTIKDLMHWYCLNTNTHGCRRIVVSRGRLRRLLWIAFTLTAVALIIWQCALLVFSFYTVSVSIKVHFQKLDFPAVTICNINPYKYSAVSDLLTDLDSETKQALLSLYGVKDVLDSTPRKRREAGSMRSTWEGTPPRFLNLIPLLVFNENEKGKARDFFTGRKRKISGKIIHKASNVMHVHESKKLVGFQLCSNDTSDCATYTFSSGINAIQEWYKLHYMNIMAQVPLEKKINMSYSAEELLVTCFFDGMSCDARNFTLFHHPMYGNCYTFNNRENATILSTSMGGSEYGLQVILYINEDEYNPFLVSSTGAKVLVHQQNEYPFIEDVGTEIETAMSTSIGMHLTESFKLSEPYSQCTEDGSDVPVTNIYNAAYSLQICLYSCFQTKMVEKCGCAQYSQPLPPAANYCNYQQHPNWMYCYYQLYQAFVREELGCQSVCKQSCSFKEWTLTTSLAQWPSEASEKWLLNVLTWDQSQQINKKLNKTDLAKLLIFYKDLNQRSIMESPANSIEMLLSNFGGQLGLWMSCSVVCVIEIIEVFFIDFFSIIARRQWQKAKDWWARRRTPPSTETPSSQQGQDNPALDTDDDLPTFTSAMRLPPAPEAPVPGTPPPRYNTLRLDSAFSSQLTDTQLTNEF
Assay: Ussing chamber: inhibition of amiloride sensitive short circuit current (I_sc) in M-1 cells
Conditions: Mouse kidney M-1 cells on transwell filters, Ussing chamber at 37° C., compound added to the apical solution
pIC50: −log10 of the molar value.
Could you label it label 1 if measured pIC50 is 7 or higher, and label 0 otherwise?

Example entries begin here.
COC(=O)CCC(=O)N1CCC(CNC(N)=NC(=O)c2nc(Cl)c(N)nc2N)(c2ccccc2)CC1 ... label 1
CC(C)(C)OC(=O)NCCNC(=O)N1CCC(CCc2ccccc2)(CNC(N)=NC(=O)c2nc(Cl)c(N)nc2N)CC1 ... label 1
COc1ccccc1C1(CNC(N)=NC(=O)c2nc(Cl)c(N)nc2N)CCNCC1 ... label 0
CC(C)CC(=O)N1CCC(CCc2ccccc2)(CNC(N)=NC(=O)c2nc(Cl)c(N)nc2N)CC1 ... label 1
C[N+](C)(C)CCCNC(=O)N1CCC(CCc2ccccc2)(CNC(N)=NC(=O)c2nc(Cl)c(N)nc2N)CC1 ... label 1

q: Form field: pIC50 at least 7? Entry: NCCCCC(=O)N1CCC(CCc2ccccc2)(CNC(N)=NC(=O)c2nc(Cl)c(N)nc2N)CC1
a: label 1

q: Form field: pIC50 at least 7? Entry: CN(C)CCCN1CCC(CNC(N)=NC(=O)c2nc(Cl)c(N)nc2N)(Cc2ccccc2)CC1
a: label 0

q: Form field: pIC50 at least 7? Entry: CC(C)NC(=O)N1CCC(CNC(N)=NC(=O)c2nc(Cl)c(N)nc2N)(c2ccccc2)CC1
a: label 1
